- assayed-target: FLT4 (human) (UniProt P35916)
- Sequence (P35916 whole entry, looked up): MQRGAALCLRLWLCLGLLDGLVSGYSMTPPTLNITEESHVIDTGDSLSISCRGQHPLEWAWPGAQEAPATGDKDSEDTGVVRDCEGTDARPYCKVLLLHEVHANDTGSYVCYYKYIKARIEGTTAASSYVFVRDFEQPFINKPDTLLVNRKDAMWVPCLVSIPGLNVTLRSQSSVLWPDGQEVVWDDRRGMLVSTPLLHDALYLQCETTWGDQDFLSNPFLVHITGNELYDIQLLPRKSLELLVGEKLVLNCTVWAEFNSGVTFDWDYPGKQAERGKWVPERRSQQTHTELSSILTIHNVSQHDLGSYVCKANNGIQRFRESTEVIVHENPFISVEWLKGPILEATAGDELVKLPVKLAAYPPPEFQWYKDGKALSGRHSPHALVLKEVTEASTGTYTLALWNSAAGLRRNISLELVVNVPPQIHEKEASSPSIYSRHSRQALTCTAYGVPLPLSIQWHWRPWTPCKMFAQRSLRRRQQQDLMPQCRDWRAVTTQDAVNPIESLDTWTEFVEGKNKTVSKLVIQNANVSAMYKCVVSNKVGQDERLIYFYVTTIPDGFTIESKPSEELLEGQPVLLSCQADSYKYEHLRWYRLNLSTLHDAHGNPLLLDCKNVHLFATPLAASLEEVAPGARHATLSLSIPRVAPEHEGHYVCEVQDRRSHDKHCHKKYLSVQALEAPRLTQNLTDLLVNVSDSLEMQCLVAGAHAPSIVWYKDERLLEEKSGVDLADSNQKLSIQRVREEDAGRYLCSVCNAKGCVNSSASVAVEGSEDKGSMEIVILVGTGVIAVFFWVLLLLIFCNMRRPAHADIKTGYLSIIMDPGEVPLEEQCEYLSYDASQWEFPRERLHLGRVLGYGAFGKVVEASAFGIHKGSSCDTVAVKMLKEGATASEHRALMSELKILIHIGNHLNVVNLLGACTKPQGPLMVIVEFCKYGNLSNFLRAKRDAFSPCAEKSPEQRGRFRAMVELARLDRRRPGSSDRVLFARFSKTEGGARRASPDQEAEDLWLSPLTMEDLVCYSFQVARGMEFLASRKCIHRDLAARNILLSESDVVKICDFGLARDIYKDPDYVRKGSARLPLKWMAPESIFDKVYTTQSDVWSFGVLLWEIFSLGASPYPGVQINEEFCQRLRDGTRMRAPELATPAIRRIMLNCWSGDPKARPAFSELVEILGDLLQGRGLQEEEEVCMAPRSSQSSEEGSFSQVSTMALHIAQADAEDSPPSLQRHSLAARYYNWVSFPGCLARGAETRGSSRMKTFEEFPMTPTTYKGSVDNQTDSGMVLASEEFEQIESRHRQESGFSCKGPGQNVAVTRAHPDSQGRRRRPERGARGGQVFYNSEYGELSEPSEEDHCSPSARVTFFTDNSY
- assay-info: KINOMEscan competition binding
- run-conditions: compound 10.0 µM
experimental-endpoint: kinase still bound, per cent of control (%)
Answers are plain numbers, in %.

CNC(=O)c1cc(Oc2ccc(NC(=O)Nc3ccc(Cl)c(C(F)(F)F)c3)cc2)ccn1; 0
N#CCNC(=O)c1ccc(-c2ccnc(Nc3ccc(N4CCOCC4)cc3)n2)cc1; 48
C=CC(=O)Nc1cc(-n2c(=O)ccc3cnc4ccc(-c5cn[nH]c5)cc4c32)ccc1C; 65

For every listed record, write down its kinase still bound, per cent of control.
1. O=C1NC(=O)/C(=C/c2ccc3nccc(-c4ccncc4)c3c2)S1
2. CN(C)C/C=C/C(=O)Nc1ccc(C(=O)Nc2cccc(Nc3nccc(-c4cccnc4)n3)c2)cc1
3. O=c1cc(N2CCOCC2)oc2c(-c3cccc4c3sc3ccccc34)cccc12
4. CS(=O)(=O)N1CCN(Cc2cc3nc(-c4cccc5[nH]ncc45)nc(N4CCOCC4)c3s2)CC1

A.
98
97
92
100

For every listed record, write down its kinase still bound, per cent of control.
1. C=CC(=O)Nc1ccc(CN(C(=O)Nc2c(Cl)c(OC)cc(OC)c2Cl)c2cc(Nc3ccc(N4CCN(C)CC4)cc3)ncn2)cc1
2. C[C@@H](Oc1cc(-c2cnn(C3CCNCC3)c2)cnc1N)c1c(Cl)ccc(F)c1Cl

A.
0.1
100
